Experiment: Luminescence Cell-Based Dose Retest to Confirm Inhibitors of Cancer Stem Cells. [Related pubchem assays (depositor defined):AID2717, AID2721];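 also: cells exposed to compound for roughly 70 hours or longer before luminescence read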
Assay type: functional
Conditions: Homo sapiens
Calls of active or inactive are those of the source. Rule as the data show it: actives have a measured AC50 and inactives only a lower limit.
Let's look at some molecules and their measured AC50.

Query block: Need AC50 of COc1cc2nc(CN3CC=C(c4ccccc4)CC3)nc(O)c2cc1OC , thanks.
Result block: 609 nM (active)

Query block: Need AC50 of COc1ccc(C)cc1NS(=O)(=O)c1ccc(NC(=O)CN(c2cc([N+](=O)[O-])ccc2C)S(C)(=O)=O)cc1 , thanks.
Result block: 1800 nM (active)

Query block: Need AC50 of CN1CCN(C2Cc3ccccc3Sc3cc(C(F)(F)F)ccc32)CC1 (centres undefined) , thanks.
Result block: 6720 nM (active)

Query block: Need AC50 of C/C(=N\Nc1cccc(Cl)c1)C1(C)N(O)C(C)(C)C(c2ccco2)=[N+]1[O-] (centres undefined) , thanks.
Result block: 1060 nM (active)
